Values from patent US8426420B2

# TESTED_SYSTEM: human P2Y12 receptor (Homo sapiens)
# Sequence (Q9H244 whole entry): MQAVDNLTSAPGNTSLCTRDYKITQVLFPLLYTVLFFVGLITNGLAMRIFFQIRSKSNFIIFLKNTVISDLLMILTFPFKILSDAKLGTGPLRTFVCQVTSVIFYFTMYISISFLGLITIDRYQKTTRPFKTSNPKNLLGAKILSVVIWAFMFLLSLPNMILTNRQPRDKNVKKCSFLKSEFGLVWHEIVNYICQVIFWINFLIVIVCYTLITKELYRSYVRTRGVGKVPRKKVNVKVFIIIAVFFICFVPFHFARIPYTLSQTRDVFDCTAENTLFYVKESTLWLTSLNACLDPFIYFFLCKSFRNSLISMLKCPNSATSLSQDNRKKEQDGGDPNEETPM
# PROTOCOL_TEXT: Human P2Y12 recombinant cell membrane binding assay with 33P 2MeS-ADP
# TEST_CONTEXT: competition against 33P 2MeS-ADP, membranes of CHO cells with recombinant human P2Y12 receptor
# Experimental: The ability of the compounds of the formula Ito inhibit the P2Y12 receptor can be assessed by determining the concentration of the compound of the formula I that binds to the human P2Y12 Recombinant Cell Membrane Binding Assay with 33P 2MeS-ADP. […] The ability of a test compound to bind to the P2Y12 receptor was evaluated in a recombinant cell membrane binding assay. […] Inhibition of binding of the labeled material was measured and correlated to the amount and potency of the test compound. […]
ENDPOINT_NAME: IC50
# include the unit after the value

O=C(O)CC[C@H](NC(=O)c1cc(OCC(=O)N2CCC[C@H]2C(=O)NC2CCC2)n(-c2ccccc2)n1)C(=O)N1CCN(C(=O)OCc2ccccc2)CC1; 15 nM
CCOC(=O)N1CCN(C(=O)[C@H](CC(=O)O)NC(=O)c2cc(OCC(=O)N3CCC[C@H]3C(=O)NCC(F)F)n(-c3cccc(F)c3)n2)CC1; 145 nM
CCOC(=O)N1CCN(C(=O)[C@H](CC(=O)O)NC(=O)c2cc(OCC(=O)N3CCC[C@H]3C(=O)NCC3CC3)n(-c3ccccc3)n2)CC1; 70 nM

API: the following record is the query input.
State its IC50 for this compound: CCOC(=O)N1CCN(C(=O)[C@H](CCC(=O)O)NC(=O)c2cc(O[C@H](C)C(=O)N3CCC[C@H]3C(=O)NC3CCC3)n(-c3ccccc3)n2)CC1 17 nM
